// data source = patent US6306860A

Measured inhibition at 1 µg/mL values are reported for all entries that follow.
# target-under-test: HIV reverse transcriptase (Human immunodeficiency virus type 1 group M subtype B, UniProt P04585)
# Construct: purchased Boehringer Mannheim
# assay-method-text: In vitro inhibition test against HIV reverse transcriptase
# Type: biochemical
# test-conditions: 1 μg/ml; read-out: Inhibitory activity of HIV-RT (%)
value-kind: inhibition at 1 µg/mL (%)

[[record]]
structure = "CC(C)CNC(=O)c1ccc(C(=O)N2CCN(c3ncccc3NC(C)C)CC2)nc1"
quantity_unit = "%"
assay_result = 58

[[record]]
structure = "CC(C)CNc1cccnc1N1CCN(C(=O)c2ccc(C(=O)NC(C)C)cn2)CC1"
quantity_unit = "%"
assay_result = 60

[[record]]
structure = "CC(C)Nc1cccnc1N1CCN(C(=O)c2ccc(C(=O)NCCCn3ccnc3)cn2)CC1"
quantity_unit = "%"
assay_result = 62

[[record]]
structure = "CCNC(=O)c1ccc(C(=O)N2CCN(CCO)CC2)nc1"
quantity_unit = "%"
assay_result = 62

[[record]]
structure = "COCCN(CCOC)C(=O)c1ccc(C(=O)N2CCN(c3ncccc3NC(C)C)CC2)nc1"
quantity_unit = "%"
assay_result = 54

[[record]]
structure = "CC(C)Nc1cccnc1N1CCN(C(=O)c2ccc(C(=O)NC3CC3)cn2)CC1"
quantity_unit = "%"
assay_result = 68

[[record]]
structure = "Cc1csc(NC(=O)c2ccc(C(=O)N3CCN(c4ncccc4NC(C)C)CC3)nc2)n1"
quantity_unit = "%"
assay_result = 70

[[record]]
structure = "CC(C)Nc1cccnc1N1CCN(C(=O)c2ccc(C(=O)NC(C)(C)C)cn2)CC1"
quantity_unit = "%"
assay_result = 55

[[record]]
structure = "CC(C)Nc1cccnc1N1CCN(C(=O)c2ccc(C(=O)NC(C)(C)CO)cn2)CC1"
quantity_unit = "%"
assay_result = 70

[[record]]
structure = "CCNc1cccnc1N1CCN(C(=O)c2ccc(C(=O)NCCOC)cn2)CC1"
quantity_unit = "%"
assay_result = 70

[[record]]
structure = "CC(C)Nc1cccnc1N1CCN(C(=O)c2ccc(C(=O)NCCN3CCOCC3)cn2)CC1"
quantity_unit = "%"
assay_result = 61

